- Tested on: 922993-354-T-J3-PDC complex spheroids, viability;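 further: spheroids exposed to compounds for seven days; 100% = DMSO vehicle control viability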
- protocol: Anticancer human tumor 922993-354-T-J3-PDC patient-derived endometrial carcinoma cell line growth inhibition [GQUAD]
- measurement conditions: second compound 0.0316 µM; first compound 0.1 µM; active compounds read low
viability, T/C strictly less than 80% = class 1. Otherwise class 0.

# example entries with known answers
COc1ccc([C@@H](O)c2cc(-c3ncnc4cc(N5CCOCC5)ccc34)c(F)cc2Cl)nn1 + Cc1cnc(CNC(=O)c2c(=O)c3ccc(N4CCCN(C)CC4)nc3n3c2sc2ccccc23)cn1
class 1
O=C(NO)c1cnc(N2CCN(S(=O)(=O)c3ccc4ccccc4c3)CC2)nc1 + Cc1[nH]c2ccc(F)cc2c1-c1nc2c3cccnc3c3ncccc3c2[nH]1
class 0
COc1ccc([C@@H](O)c2cc(-c3ncnc4cc(N5CCOCC5)ccc34)c(F)cc2Cl)nn1 + Cc1[nH]c2ccc(F)cc2c1-c1nc2c3cccnc3c3ncccc3c2[nH]1
class 0
CC(C)(O)C1CCC(Nc2ccc3ncc(-c4cccc(C(F)(F)F)c4)n3n2)CC1 (configuration not stated) + CN(C)c1ccc(Nc2c3ccc(NC(=O)CCN4CCCC4)cc3nc3cc(NC(=O)CCN4CCCC4)ccc23)cc1
class 0

Kindly consider the entry below.
Problem: API: query returns whether the compound falls strictly under 80% in viability, T/C. Query: Cc1cccc(N(C)C(=O)C2C(O)CCN2c2nc(C)cc(C(F)(F)F)c2C#N)c1 (configuration not stated) + Cc1[nH]c2ccc(F)cc2c1-c1nc2c3cccnc3c3ncccc3c2[nH]1
Result: class 0

This collection of values is drawn from PubChem BioAssay AID2060489.
